- subject of test: Sa-ClpP (Staphylococcus aureus, UniProt Q2G036)
- Construct: made in house; host or cells: E. coli BL21(DE3)
- Sequence (Q2G036 whole entry): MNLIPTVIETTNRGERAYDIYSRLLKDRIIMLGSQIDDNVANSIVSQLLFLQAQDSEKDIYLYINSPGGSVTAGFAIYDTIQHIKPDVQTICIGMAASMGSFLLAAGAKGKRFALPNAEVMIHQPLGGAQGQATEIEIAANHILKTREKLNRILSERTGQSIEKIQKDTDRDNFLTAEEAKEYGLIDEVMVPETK
- method notes: ADEP displacement fluorescence polarization assay (FP probe ADEP 2591)
- Assay type: binding
- details: displacement of FP probe ADEP 2591 from Sa-ClpP; read-out: ADEP Displacement IC50
*1 amine or outer side, *2 acyl side, *3 side chain or, on linkers, in order; H or OH if unused. Where a SMILES comes first, the peptide text is derived from it. Bridges are numbered along the chain shown (N, C = ends). [ ]: non-standard residue; d: D form. The star is where a group is joined. Phe(3,5-F2) = N[C@@H](Cc1cc(F)cc(F)c1)C(=O)O; NH(4-OCF3-phenyl) = FC(F)(F)Oc1ccc(N*)cc1; Morpholine(3S-CO) = O=C(O)[C@@H]1COCCN1; Pro(4S-Me) = C[C@@H]1CN[C@H](C(=O)O)C1; Pro(4R-Me) = C[C@H]1CN[C@H](C(=O)O)C1; NMeaThr = CN[C@H](C(=O)O)[C@H](C)O; Hyp = O=C(O)[C@@H]1C[C@@H](O)CN1; NH(4-Et-phenyl) = CCc1ccc(N*)cc1; NH(4-Me-phenyl) = Cc1ccc(N*)cc1; aThr = C[C@H](O)[C@H](N)C(=O)O; Pip = O=C(O)[C@@H]1CCCCN1; NMeA = CN[C@@H](C)C(=O)O; CO = O=C([*:1])[*:2]
Listing of entries alongside the reported pIC50.
On this scale, pIC50 is minus log10 of a concentration expressed in M (mol/L).

The following molecules have reported results that may help.
Cc1ccc(NC(=O)N[C@@H](Cc2cc(F)cc(F)c2)C(=O)N[C@@H]2C(=O)N3CCC[C@H]3C(=O)N(C)[C@@H]([C@H](C)O)C(=O)N[C@@H](C)C(=O)N3C[C@H](C)C[C@H]3C(=O)O[C@H]2C)cc1 [Compound 208] ({NH(4-Me-phenyl)-CO}-[Phe(3,5-F2)][aThr]P[NMeaThr]A[Pro(4R-Me)]; ester 2-C): 5.19
CCc1ccc(NC(=O)N[C@@H](Cc2cc(F)cc(F)c2)C(=O)N[C@@H]2C(=O)N3CCC[C@H]3C(=O)N(C)[C@@H]([C@H](C)O)C(=O)N[C@@H](C)C(=O)N3C[C@@H](C)C[C@H]3C(=O)O[C@H]2C)cc1 [Compound 204] ({NH(4-Et-phenyl)-CO}-[Phe(3,5-F2)][aThr]P[NMeaThr]A[Pro(4S-Me)]; ester 2-C): 5.15
C[C@H]1C[C@H]2C(=O)O[C@@H](C)[C@H](NC(=O)[C@H](Cc3cc(F)cc(F)c3)NC(=O)Nc3ccc(OC(F)(F)F)cc3)C(=O)N3CCC[C@H]3C(=O)N(C)[C@@H]([C@H](C)O)C(=O)N[C@@H](C)C(=O)N2C1 [Compound 203] ({NH(4-OCF3-phenyl)-CO}-[Phe(3,5-F2)][aThr]P[NMeaThr]A[Pro(4S-Me)]; ester 2-C): 5.19
Cc1ccc(NC(=O)N[C@@H](Cc2cc(F)cc(F)c2)C(=O)N[C@@H]2C(=O)N3CCC[C@H]3C(=O)N(C)[C@@H]([C@H](C)O)C(=O)N[C@@H](C)C(=O)N3C[C@@H](C)C[C@H]3C(=O)O[C@H]2C)cc1 [Compound 202] ({NH(4-Me-phenyl)-CO}-[Phe(3,5-F2)][aThr]P[NMeaThr]A[Pro(4S-Me)]; ester 2-C): 5.18

Prompt line: Fill in: pIC50 of Cc1ccc(NC(=O)N[C@@H](Cc2cc(F)cc(F)c2)C(=O)N[C@@H]2C(=O)N3CCC[C@H]3C(=O)N3CCCC[C@H]3C(=O)N[C@@H](C)C(=O)N3C[C@H](C)C[C@H]3C(=O)O[C@H]2C)cc1 [Compound 209] ({NH(4-Me-phenyl)-CO}-[Phe(3,5-F2)][aThr]P[Pip]A[Pro(4R-Me)]; ester 2-C) is ___
Response line: 5.05

Prompt line: Fill in: pIC50 of C[C@H]1C[C@H]2C(=O)O[C@@H](C)[C@H](NC(=O)[C@H](Cc3cc(F)cc(F)c3)NC(=O)Nc3ccc(OC(F)(F)F)cc3)C(=O)N3CCC[C@H]3C(=O)N3CCOC[C@H]3C(=O)N[C@@H](C)C(=O)N2C1 [Compound 201] ({NH(4-OCF3-phenyl)-CO}-[Phe(3,5-F2)][aThr]P[Morpholine(3S-CO)]A[Pro(4S-Me)]; ester 2-C) is ___
Response line: 5.21

Prompt line: Fill in: pIC50 of Cc1ccc(NC(=O)N[C@@H](Cc2cc(F)cc(F)c2)C(=O)N[C@@H]2C(=O)N3C[C@H](O)C[C@H]3C(=O)N(C)[C@@H](C)C(=O)N[C@@H](C)C(=O)N3C[C@@H](C)C[C@H]3C(=O)O[C@H]2C)cc1 [Compound 214] ({NH(4-Me-phenyl)-CO}-[Phe(3,5-F2)][aThr][Hyp][NMeA]A[Pro(4S-Me)]; ester 2-C) is ___
Response line: 5.24
